Just for reference, patent EP0908457B1 is where these values come from.

Tested on: Echinochloa oryzoides (Ard.) Fritsch.
method-description: Preemergence weed control under flooded paddy conditions, ECHORC (Watergrass (Calif.))
Assay type: in vivo
condition-set: Rate 0.0620 kg/ha; preemergence, flooded paddy; rated three to four weeks after treatment
reported-property: ECHORC herbicidal effect rating

compound	quantitative-readout
CNC.Cn1c(C(F)(F)F)cc(=O)n(-c2ccc3snc(COCC(=O)O)c3c2)c1=O [Example 296]	0.0
Cn1c(C(F)(F)F)cc(=O)n(-c2ccc3snc(CC=NO)c3c2)c1=O [Example 266]	0.0
Cn1c(C(F)(F)F)cc(=O)n(-c2ccc3snc(CSCC(=O)O)c3c2)c1=O [Example 283]	3.4
Cn1c(C(F)(F)F)cc(=O)n(-c2ccc3snc(C(Br)C#N)c3c2)c1=O (stereo not shown) [Example 264]	0.0
CCOc1ccc2sc(S(=O)(=O)NC(=O)COc3ccc(C)cc3-c3nsc4ccc(-n5c(=O)cc(C(F)(F)F)n(C)c5=O)cc34)nc2c1 [Example 289]	2.0
Cn1c(C(F)(F)F)cc(=O)n(-c2ccc3snc(COCC(=O)O)c3c2)c1=O [Example 293]	0.0
Cc1nsc2ccc(-n3c(=O)c(Cl)c(C(F)(F)F)n(C)c3=O)cc12 [Example 271]	0.0

###

System: Oryza sativa, (L.) Tebonnet
method-description: Rice tolerance to post-transplant applications under flooded paddy conditions (Example 187), ORYSAT (Rice, Tebonnet); also: meaning of each grade not given here
condition-set: Rate 0.2500 kg/ha, rated 3-4 weeks after treatment
Documented herbicidal effect rating ORYSAT across a set of compounds
reported-property: herbicidal effect rating ORYSAT

compound	quantitative-readout
Cc1ccc(OCC(=O)c2ccc(Cl)cc2)c(-c2nsc3ccc(-n4c(=O)cc(C(F)(F)F)n(C)c4=O)cc23)c1 [Example 538]	1.0
CNC(=O)COc1ccc(C)cc1-c1nsc2ccc(-n3c(=O)cc(C(F)(F)F)n(C)c3=O)cc12 [Example 561]	4.5
Cn1c(C(F)(F)F)cc(=O)n(-c2ccc3snc(-c4ccccc4OCC(N)=O)c3c2)c1=O [Example 548]	6.0
COCCCOCCCOC(=O)COc1ccc(C)cc1-c1nsc2ccc(-n3c(=O)cc(C(F)(F)F)n(C)c3=O)cc12 [Example 536]	4.0
Cc1ccc(C(=O)C(C)Oc2ccccc2-c2nsc3ccc(-n4c(=O)cc(C(F)(F)F)n(C)c4=O)cc23)cc1C (stereo not shown) [Example 550]	0.0
CON(C)C(=O)/C=C/c1nsc2ccc(-n3c(=O)cc(C(F)(F)F)n(C)c3=O)cc12 [Example 565]	3.0
Cc1nsc2ccc(-n3c(=O)cc(C(F)(F)F)n(CCF)c3=O)cc12 [Example 516]	3.0

###

System: Echinochloa oryzoides (Ard.) Fritsch.
method-description: Preemergence weed control under flooded paddy conditions, ECHORC (Watergrass (Calif.))
Type: in vivo
condition-set: 0.0320 kg/ha; preemergence weeds, flooded paddy; herbicidal effect rating 0-9, three to four weeks after treatment
reported-property: ECHORC

compound	reported-property	quantitative-readout
CCOC(=O)c1nsc2cc(F)c(-n3c(=O)cc(C(F)(F)F)n(C)c3=O)cc12 [Example 423]	ECHORC	6.0
COC(OC)c1nsc2ccc(-n3c(=O)cc(C(F)(F)F)n(C)c3=O)cc12 [Example 453]	ECHORC	9.0
Cn1c(C(F)(F)F)cc(=O)n(-c2ccc3snc(COC(=O)Cc4cccs4)c3c2)c1=O [Example 451]	ECHORC	0.0
Cn1c(C(F)(F)F)cc(=O)n(-c2ccc3snc(C(=O)OCCCO)c3c2)c1=O [Example 410]	ECHORC	0.0
